Data origin, for the record: PubChem BioAssay (NCI)

system: UACC-62 melanoma; experiment: NCI-60 one-dose screen, 48 h (100 = growth as untreated, 0 = no growth, -100 = all killed); settings: 10 µM unless noted
About 83,000 compounds went through this panel and 20% of them were active in at least one assay; those are over-represented in the sample as a whole. Calls of active or inactive are those of the source. The calls were made as follows: active = growth percent below 10; inactive = the rest.
The compounds listed here are annotated with their growth.

smiles.record | growth
CCCCCCCCCCCCCC[N+](C)(C)CCCCCCCCCCCCCC | 42.6% (inactive)
COc1cc2nccc(Oc3ccc(NC(=O)C4(C(=O)Nc5c(F)cc(F)cc5F)CC4)cc3)c2cc1Oc1ccc(N)cn1 | 24.4% (inactive)
CC(=O)N[C@@H](CCC(N)=O)C(=O)O | 98.2% (inactive)
O=C1C=CC(=O)N1c1cccc(N2C(=O)C=CC2=O)c1 | 109% (inactive)
CC1(C)CC[C@]2(C(=O)N3CCNCC3)CC[C@]3(C)C(=CC[C@@H]4[C@@]5(C)CCC(=O)C(C)(C)[C@@H]5CC[C@]43C)[C@@H]2C1 | 98.9% (inactive)
COc1cc(/C=C/C(=O)c2ccc(NC(=O)CSc3nnc(-c4ccc(Cl)cc4)n3-c3ccccc3)cc2)cc(OC)c1OC | 68.5% (inactive)
COc1cc(/C=C2\C(=O)Nc3ccc(N(C)C)cc32)cc(OC)c1OC | -0.443% (active)

----------
Items are presented alongside their recorded growth.
system: RXF 393 renal; experiment: NCI-60 one-dose screen, 48 h (100 = growth as untreated, 0 = no growth, -100 = all killed); conditions: 10 µM unless noted
Compounds without any hit were thinned out: in the full panel of roughly 83,000, 20% have a hit. Calls of active or inactive are those of the source. Rule for the calls: active = growth percent below 10; inactive = the rest.

smiles.record | growth
CC(=O)N[C@@H](CCC(N)=O)C(=O)O | 90% (inactive)
COc1cccc(Cn2c(-c3nonc3NC(C)=O)nc3ccccc32)c1 | -17% (active)
CC[C@H](Nc1nc(N)nc(N)c1Cl)c1nc2cccc(NCc3ccc(C(=O)NO)cc3)c2c(=O)n1-c1ccccc1 | -52.5% (active)
O=C(Nc1ccccc1Cl)Oc1ccc2ccccc2c1 | 99.6% (inactive)
COc1ccc(/C(=C\c2ccc3c(c2)OCO3)C(=O)Nc2nc3ccccc3s2)cc1 | 118% (inactive)
Cc1cc(C)cc(NC(=O)Cn2nncc2CN2C(=O)CSC2=O)c1 | 113% (inactive)

----------
tested on: SN12C renal; assay: NCI-60 one-dose screen, 48 h (100 = growth as untreated, 0 = no growth, -100 = all killed); conditions: 10 µM unless noted
This is part of a sample that, as a whole, favours compounds with a hit. Of some 83,000 tested, about 20% had one in any assay.
quantity.measured: growth (%)

smiles.record | recorded.number
Cc1ccc2cc3c(NC(=O)c4cccnc4)nn(C)c3nc2c1 | 101
O=c1[nH]c2cc(Cl)c(Cl)cc2o1 | 95.5
CCSc1ccc([C@@H]2[C@@H](N)C(=O)N2c2cc(OC)c(OC)c(OC)c2)cc1 | 49.6
COc1cc(-c2nc(-c3nc4cc(C(=O)c5ccccc5)ccc4[nH]3)cc3c2[nH]c2ccccc23)cc(OC)c1OC | 89.5

----------
system: NCI-H522 lung; experiment: NCI-60 one-dose screen, 48 h (100 = growth as untreated, 0 = no growth, -100 = all killed); settings: 10 µM unless noted
About 83,000 compounds went through this panel and 20% of them were active in at least one assay; those are over-represented in the sample as a whole.
Catalogue of molecules with associated growth
quantity.measured: growth (%)

molecule | quantity.measured | unit.abbreviation | recorded.number
Oc1[nH]c2ccccc2c1/C=c1/ccc2c(c1)N=C(c1ccc(C(F)(F)F)cc1)N=2 | growth | % | 40.7
CN(C)c1ccc(C(c2ccccc2)c2ccc(N(C)C)cc2)cc1 | growth | % | 88.3
Cc1ccc(N=CNN=C(N)N)cc1 | growth | % | 95.4
COc1cccc(NC(=O)[C@H](C(C)C)n2c(=O)[nH]c3ccccc3c2=O)c1 | growth | % | 99.1
Cc1ccc(NC(=O)c2nc(S(C)(=O)=O)oc2-c2ccc(F)cc2)cc1Nc1ccc2ncn(C)c(=O)c2c1 | growth | % | -7.9
COc1ccc(/C(=C\c2cc(OC)c(OC)c(OC)c2)C(=O)N2CCN(c3ccccc3)CC2)cc1O | growth | % | 84.4
O=C1/C(=C\c2cccn2Cc2ccc(Cl)cc2)c2ccccc2N1c1c(Cl)cccc1Cl | growth | % | 76.6
CN(C)c1ccc(/C=N/Nc2nnc3n2N=C(c2ccc(Cl)cc2)CS3)cc1 | growth | % | 87.5
COC(=O)c1ccc(NC(N)=NCCC(C)(C)c2ccc(C(F)(F)F)cc2)nc1 | growth | % | 39
CC(=O)c1c(C)nc(-c2cc(C)cc(Cl)c2)nc1-c1cccc(Oc2ccccc2)c1 | growth | % | 59
CC1CN(CCCOC(=O)Nc2ccc(Cl)cc2)CCN1C(C)(C)C (stereo not drawn) | growth | % | 97.5
Clc1ccccc1Nc1nnc(-c2ccncc2)s1 | growth | % | 98.6
COc1ccc(/C=C(/C(=O)N2CCN(c3ccccc3)CC2)c2cc(OC)c(OC)c(OC)c2)cc1N | growth | % | 3.2
